Parameter Response: see the listing below.
# Species: Oryctolagus cuniculus
# protocol text: The compound was tested in vitro on rabbit aorta for residual response in presence of ultraviolet light
# Assay type: functional
Where a SMILES comes first, the peptide text is derived from it.
Output spec: scalar in %, unitless text.

Some entries whose results are on file:
molecule	unit spec	Response
NC(N)=NCCC[C@H](N)C(=O)N1CCC[C@H]1C(=O)N1CCC[C@H]1C(=O)NCC(=O)N[C@@H](Cc1ccc([N+](=O)[O-])cc1)C(=O)N[C@@H](CO)C(=O)N1CCC[C@H]1C(=O)N[C@@H](Cc1ccccc1)C(=O)O	%	92
[N-]=[N+]=Nc1ccc(C[C@H](NC(=O)CNC(=O)[C@@H]2CCCN2C(=O)[C@@H]2CCCN2C(=O)[C@@H](N)CCCN=C(N)N)C(=O)N[C@@H](CO)C(=O)N2CCC[C@H]2C(=O)N[C@@H](Cc2ccccc2)C(=O)O)cc1	%	90

Field request: Response | item: NC(N)=NCCC[C@H](N)C(=O)N1CCC[C@H]1C(=O)N1CCC[C@H]1C(=O)NCC(=O)N[C@@H](Cc1ccccc1)C(=O)N[C@@H](CO)C(=O)N1CCC[C@H]1C(=O)N[C@@H](Cc1ccccc1)C(=O)O
85

Field request: Response | item: NC(N)=NCCC[C@H](N)C(=O)N1CCC[C@H]1C(=O)N1CCC[C@H]1C(=O)NCC(=O)N[C@@H](Cc1ccccc1)C(=O)N[C@@H](CO)C(=O)N1CCC[C@H]1C(=O)N[C@@H](Cc1ccc([N+](=O)[O-])cc1)C(=O)O
76

Field request: Response | item: [N-]=[N+]=Nc1ccc(/N=N/c2cc(C[C@H](NC(=O)CNC(=O)[C@@H]3CCCN3C(=O)[C@@H]3CCCN3C(=O)[C@@H](N)CCCN=C(N)N)C(=O)N[C@@H](CO)C(=O)N3CCC[C@H]3C(=O)N[C@@H](Cc3ccccc3)C(=O)O)ccc2O)cc1 (HELM PEPTIDE1{R.P.P.G.[[N-]=[N+]=Nc1ccc(/N=N/c2cc(C[C@H](N[*:1])C(=O)[*:2])ccc2O)cc1].S.P.F}$$$$V2.0)
69

Field request: Response | item: [N-]=[N+]=Nc1ccc(C[C@H](NC(=O)[C@@H]2CCCN2C(=O)[C@H](CO)NC(=O)[C@H](Cc2ccccc2)NC(=O)CNC(=O)[C@@H]2CCCN2C(=O)[C@@H]2CCCN2C(=O)[C@@H](N)CCCN=C(N)N)C(=O)O)cc1
37

====

# tgt: B1 bradykinin receptor (Homo sapiens) (UniProt P46663)
# Sequence (P46663 whole entry): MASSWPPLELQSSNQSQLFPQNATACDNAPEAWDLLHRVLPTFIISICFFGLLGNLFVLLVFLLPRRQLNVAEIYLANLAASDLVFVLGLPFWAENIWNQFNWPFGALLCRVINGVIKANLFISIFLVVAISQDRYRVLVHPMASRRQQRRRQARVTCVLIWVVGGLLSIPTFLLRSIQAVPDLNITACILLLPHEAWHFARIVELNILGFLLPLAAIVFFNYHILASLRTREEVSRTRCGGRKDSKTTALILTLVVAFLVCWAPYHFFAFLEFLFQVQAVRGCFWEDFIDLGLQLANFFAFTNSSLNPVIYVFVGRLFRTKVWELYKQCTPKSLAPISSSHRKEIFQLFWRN
# protocol text: Intrinsic activity was determined
# Type: functional
# conditions: Oryctolagus cuniculus
Where a SMILES comes first, the peptide text is derived from it.
readout name: Alpha E
Number only, no unit.

molecule	Alpha E
[N-]=[N+]=Nc1ccc(C[C@H](NC(=O)[C@@H]2CCCN2C(=O)[C@H](CO)NC(=O)[C@H](Cc2ccccc2)NC(=O)CNC(=O)[C@@H]2CCCN2C(=O)[C@@H]2CCCN2C(=O)[C@@H](N)CCCN=C(N)N)C(=O)N[C@@H](CCCN=C(N)N)C(=O)O)cc1 (HELM PEPTIDE1{R.P.P.G.F.S.P.[[N-]=[N+]=Nc1ccc(C[C@H](N[*:1])C(=O)[*:2])cc1].R}$$$$V2.0)	1

Query molecule follows.
Field request: Alpha E | item: N#[N+]c1ccc(C[C@H](NC(=O)[C@@H]2CCCN2C(=O)[C@H](CO)NC(=O)[C@H](Cc2ccccc2)NC(=O)CNC(=O)[C@@H]2CCCN2C(=O)[C@@H]2CCCN2C(=O)[C@@H](N)CCCN=C(N)N)C(=O)O)cc1
1
